Target: hERG channel (Homo sapiens, UniProt Q12809)
Sequence (Q12809 whole entry): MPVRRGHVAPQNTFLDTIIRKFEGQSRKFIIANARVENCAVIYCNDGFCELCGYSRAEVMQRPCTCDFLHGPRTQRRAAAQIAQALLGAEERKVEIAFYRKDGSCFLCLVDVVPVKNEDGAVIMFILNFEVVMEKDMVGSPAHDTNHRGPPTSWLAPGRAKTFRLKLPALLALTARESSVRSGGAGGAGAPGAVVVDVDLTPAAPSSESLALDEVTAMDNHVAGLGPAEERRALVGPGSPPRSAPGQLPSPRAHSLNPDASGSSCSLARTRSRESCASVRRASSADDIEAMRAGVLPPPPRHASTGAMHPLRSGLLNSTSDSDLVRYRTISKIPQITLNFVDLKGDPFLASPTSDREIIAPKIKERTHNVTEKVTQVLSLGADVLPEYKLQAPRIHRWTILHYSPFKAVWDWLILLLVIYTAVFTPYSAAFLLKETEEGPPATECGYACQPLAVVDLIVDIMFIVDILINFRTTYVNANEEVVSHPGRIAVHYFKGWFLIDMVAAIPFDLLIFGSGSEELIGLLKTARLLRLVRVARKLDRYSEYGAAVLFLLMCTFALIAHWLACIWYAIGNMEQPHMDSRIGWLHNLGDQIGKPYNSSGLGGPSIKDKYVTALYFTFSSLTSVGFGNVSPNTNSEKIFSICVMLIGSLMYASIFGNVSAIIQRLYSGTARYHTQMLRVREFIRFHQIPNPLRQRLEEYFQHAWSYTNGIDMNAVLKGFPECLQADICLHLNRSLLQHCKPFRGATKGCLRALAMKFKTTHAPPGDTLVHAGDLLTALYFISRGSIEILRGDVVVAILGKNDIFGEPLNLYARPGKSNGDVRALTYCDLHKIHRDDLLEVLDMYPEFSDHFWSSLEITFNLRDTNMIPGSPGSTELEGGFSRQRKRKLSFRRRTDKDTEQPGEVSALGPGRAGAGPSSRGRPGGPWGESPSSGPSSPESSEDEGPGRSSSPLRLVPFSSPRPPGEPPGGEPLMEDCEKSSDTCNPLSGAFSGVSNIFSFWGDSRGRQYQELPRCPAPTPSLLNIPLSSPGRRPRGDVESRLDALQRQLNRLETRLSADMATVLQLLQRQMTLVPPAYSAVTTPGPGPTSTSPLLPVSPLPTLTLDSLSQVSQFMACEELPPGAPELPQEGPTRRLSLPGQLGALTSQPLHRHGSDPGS
Assay: Predictor hERG Fluorescence Polarization assay
Type: binding
Settings: read-out: hERG channel inhibition (IC50), 0.1-80 μM
property.label: pIC50
Scale: pIC50 equals -log10([C]), with [C] in mol/L.

In: Supply pIC50 value. Item: CN(C)CCN1CCN(CCCN2c3ccccc3Sc3ccc(C(F)(F)F)cc32)CC1
Out: 5.70
